Target: human TYK2 catalytic kinase (JH1) domain (Homo sapiens (Human), UniProt P29597)
Sequence (P29597 897-1176): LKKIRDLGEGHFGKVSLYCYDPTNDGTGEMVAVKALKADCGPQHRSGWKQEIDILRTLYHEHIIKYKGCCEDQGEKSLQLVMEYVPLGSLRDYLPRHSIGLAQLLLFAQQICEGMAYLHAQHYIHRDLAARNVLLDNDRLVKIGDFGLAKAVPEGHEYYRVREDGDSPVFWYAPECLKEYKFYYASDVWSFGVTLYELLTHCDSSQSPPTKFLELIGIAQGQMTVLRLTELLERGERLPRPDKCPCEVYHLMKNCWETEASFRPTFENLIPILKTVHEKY
Test: ADP-Glo Kinase Assay, recombinant TYK2 catalytic kinase (JH1) domain
Format: biochemical
Conditions: recombinant JH1 domain 2 nM, 10 μM ATP, JAK3-974 peptide, mean, read-out: TYK2 biochem IC50 (nM) Mean
Each record is given 1 if its reported IC50 is strictly below 100 nM. Records at or above 100 nM are given 0.

Exercise: Field: below-cutoff. Rule: recorded IC50 strictly less than 100 nM. Subject: O=C([C@@H]1C[C@H]1F)N1C2CCC1CN(c1ccnn3cc(C4CCOC4)cc13)C2 (some centres unmarked)
Solution: 0

Exercise: O=C([C@@H]1C[C@H]1F)N1C2CCC1CN(c1ccnn3cc(-c4ccnnc4)cc13)C2 ?
Solution: 1

Exercise: Likewise for O=C([C@@H]1C[C@H]1F)N1C2CCC1CN(c1ccnn3cc(-c4ccc(OC(F)F)nc4)cc13)C2 ?
Solution: 1

Exercise: Then this compound: O=C([C@@H]1CC1(F)F)N1C2CCC1CN(c1ccnn3cc(-c4cnn(C(F)(F)F)c4)cc13)C2
Solution: 1

Exercise: Okay, and O=C([C@@H]1C[C@H]1F)N1C2CCC1CN(c1ccnn3cc(-c4ccc(C(F)(F)F)nc4)cc13)C2 ?
Solution: 1

Exercise: And for O=C(C1CC(F)(F)C1)N1C2CCC1CN(c1ncnn3cc(-c4cnn(C(F)F)c4)cc13)C2 ?
Solution: 0

Exercise: Now consider O=C(C1CC1)N1C2CCC1CN(c1ncnn3cc(-c4ccc5nncn5c4)cc13)C2 and answer again.
Solution: 0

Exercise: Now consider O=C([C@@H]1C[C@H]1F)N1C2CCC1CN(c1ncnn3cc(-c4ccnnc4)cc13)C2 and answer again.
Solution: 0
